target of assay: T1, soluble human CD3 epsilon chain (human, UniProt P07766 23-126)
T1 construct: also called CD3ε
T1 sequence (P07766 23-126 limits assumed): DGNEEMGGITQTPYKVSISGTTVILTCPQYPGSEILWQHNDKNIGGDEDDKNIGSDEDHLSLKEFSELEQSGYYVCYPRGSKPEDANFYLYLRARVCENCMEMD
experimental protocol: SPR
Kindly note that classification relies on Kd with these boundaries: LOW: < 50 nM; MID: ≥ 50 nM and < 80 nM; HIGH: ≥ 80 nM

Completed entries (count: 5):
[[record]]
binder = "TR01H040-E22Hh/none-Hi-Kn010G3/L0246-k0 (antibody, V domains shown, one-arm) VH: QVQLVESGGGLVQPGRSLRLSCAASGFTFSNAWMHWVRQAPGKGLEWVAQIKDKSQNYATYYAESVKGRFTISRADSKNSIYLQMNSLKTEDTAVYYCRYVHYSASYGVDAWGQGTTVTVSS VL: DIVMTQSPLSLPVTPGEPASISCRSSQSPVHSNRNTYIQWYQQKPGQAPRLLIYKVSNRFSGVPDRFSGSGSGTDFTLKISRVEAEDVGVYYCSQGTQVPYTFGQGTKLEIK"
cat = "HIGH"

[[record]]
binder = "TR01H105-E22Hh/none-Hi-Kn010G3/L0011-k0 (antibody, V domains shown, one-arm) VH: QVQLVESGGGLVQPGRSLRLSCAASGFTFSNAWMHWVRQAPGKGLEWVAQIKDKSQNYATYLAESVKGRFTISRDDSKNSLYLQMNSLKTEDTAVYYCRYVHYAAGYGVDAWGQGTTVTVSS VL: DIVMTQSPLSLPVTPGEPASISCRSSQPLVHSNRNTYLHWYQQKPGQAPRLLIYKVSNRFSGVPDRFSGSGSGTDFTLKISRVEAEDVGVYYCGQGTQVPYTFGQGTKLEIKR"
cat = "MID"

[[record]]
binder = "CE115HA180-G1dh//-Hi-Kn010G3/L0000-k0 (antibody, V domains shown, one-arm) VH: QVQLVESGGGVVQPGRSLRLSCAASGFTFSNAWMHWVRQAPGKGLEWVAQIKAKSNNYATYYAESVKGRFTISRADSKNSLYLQMNSLKTEDTAVYYCRYVHYGAYYGVQAWGQGTTVTVSS VL: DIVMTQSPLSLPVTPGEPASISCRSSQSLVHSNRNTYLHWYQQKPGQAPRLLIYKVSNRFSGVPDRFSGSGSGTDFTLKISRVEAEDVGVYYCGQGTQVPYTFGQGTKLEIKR"
cat = "LOW"

[[record]]
binder = "TR01H029-E22Hh/none-Hi-Kn010G3/L0000-k0 (antibody, V domains shown, one-arm) VH: QVQLVESGGGLVQPGRSLRLSCSASGFTFSNAWMHWVRQAPGKGLEWVAQIKGKSNNYATYYAESVKGRFTISRADSKNSIYLQMNSLKTEDTAVYYCRYVHYSASYGVDIWGQGTTVTVSS VL: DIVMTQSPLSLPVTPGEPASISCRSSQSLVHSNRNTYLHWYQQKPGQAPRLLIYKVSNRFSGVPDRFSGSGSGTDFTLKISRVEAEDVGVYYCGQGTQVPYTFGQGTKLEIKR"
cat = "MID"

[[record]]
binder = "CE115HA251-E22Hh//-Hi-Kn010G3/L0000-k0 (antibody, human IgG1, kappa, L234A L235A, N297A, V domains shown, one-arm) VH: QVQLVESGGGVVQPGRSLRLSCAASGFTFSNAWMHWVRQAPGKGLEWVAQIKAKSNNYATYYAESVKGRFTISRDDSKNSLYLQMNSLKTEDTAVYYCRYVHYYYYYGVDAWGQGTTVTVSS VL: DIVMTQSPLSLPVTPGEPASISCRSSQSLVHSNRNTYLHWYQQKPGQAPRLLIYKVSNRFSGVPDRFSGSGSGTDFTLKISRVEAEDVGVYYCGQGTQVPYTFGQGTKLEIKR"
cat = "LOW"


In plain terms, what class is TR01H082-E22Hh/none-Hi-Kn010G3/L0268-k0 (antibody, V domains shown, one-arm) VH: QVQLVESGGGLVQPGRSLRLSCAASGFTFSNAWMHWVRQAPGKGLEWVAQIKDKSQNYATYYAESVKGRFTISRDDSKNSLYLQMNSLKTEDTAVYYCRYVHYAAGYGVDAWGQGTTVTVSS VL: DIVMTQSPLSLPVTPGEPASISCRSSQSPVHSNRNTYIQWYQQKPGQAPRLLIYKVSNRFSGVPDRFSGSGSGTDFTLKISRVEAEDVGVYYCVQGTQVPYTFGQGTKLEIK ?
HIGH

Lab note: which band did TR01H040-E22Hh/none-Hi-Kn010G3/L0224-k0 (antibody, V domains shown, one-arm) VH: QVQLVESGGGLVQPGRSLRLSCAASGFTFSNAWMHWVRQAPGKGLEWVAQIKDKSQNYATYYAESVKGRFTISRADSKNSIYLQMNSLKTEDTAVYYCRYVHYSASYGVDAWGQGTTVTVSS VL: DIVMTQSPLSLPVTPGEPASISCRSSQSPVHSNRNTYIHWYQQKPGQAPRLLIYKVSNRFPGVPDRFSGSGSGTDFTLKISRVEAEDVGVYYCYQGTQVPYTFGQGTKLEIK land in?
LOW

Which class does TR01H067-E22Hh/none-Hi-Kn010G3/L0226-k0 (antibody, V domains shown, one-arm) VH: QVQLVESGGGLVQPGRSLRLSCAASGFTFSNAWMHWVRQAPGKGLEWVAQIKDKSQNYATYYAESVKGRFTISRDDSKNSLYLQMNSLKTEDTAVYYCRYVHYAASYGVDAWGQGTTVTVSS VL: DIVMTQSPLSLPVTPGEPASISCRSSQSPVHSNRNTYIHWYQQKPGQAPRLLIYKVSNRFSGVPDRFSGSGSGTDFTLKISRVEAEDVGVYYCIQGTQVPYTFGQGTKLEIK fall in?
HIGH

Source of measurements: patent US20250066503A1
